- System: S. aureus ATCC 25923
- PROTOCOL_SUMMARY: microbe, parasite or virus in culture
- MEASUREMENT_SETUP: ATCC 25923, 18 h
Where a SMILES comes first, the peptide text is derived from it. Bridges are numbered along the chain shown (N, C = ends). [ ]: non-standard residue; d: D form. The star is where a group is joined. Octanoyl = CCCCCCCC(=O)*; Dab = NCC[C@H](N)C(=O)O
READOUT_NAME: MIC S. aureus ATCC 25923

Query string: Looking for the measured MIC S. aureus ATCC 25923 of CCCCCCCC(=O)N[C@H](C(=O)N[C@@H](CC(N)=O)C(=O)N[C@H]1CCNC(=O)[C@H]([C@@H](C)O)NC(=O)[C@H](CCN)NC(=O)[C@H](CCN)NC(=O)[C@H](CC(C)C)NC(=O)[C@@H](Cc2ccccc2)NC(=O)[C@H](CCN)NC1=O)[C@@H](C)O [Compound 38] (Octanoyl-TN[Dab][Dab][dF]L[Dab][Dab]T; lactam 3-C) , can you help?
Result string: >32 µg/mL

----------
Listed below: MIC P. aeruginosa ATTC 27853 values for each entry.
- Tested on: P. aeruginosa ATTC 27853
- PROTOCOL_SUMMARY: microbe, parasite or virus in culture
- MEASUREMENT_SETUP: ATTC 27853, 18 h
- Description: All compounds synthesised in this study were assessed for their minimum inhibitory concentrations (MIC, mg/L) by broth microdilution assay against five antibiotic-sensitive and resistant ATCC reference strains covering the Gram-negative ESKAPE pathogens (Escherichia coli, Klebsiella pneumoniae, A. baumannii, and P. aeruginosa) (Table 1, Table 2 and Table 3). Staphylococcus aureus was also included as a representative Gram-positive bacterial strain. […]
Where a SMILES comes first, the peptide text is derived from it. Bridges are numbered along the chain shown (N, C = ends). [ ]: non-standard residue; d: D form. The star is where a group is joined. Benzoyl(4-hexyl) = CCCCCCc1ccc(C(=O)*)cc1; dDab = NCC[C@@H](N)C(=O)O; Octanoyl = CCCCCCCC(=O)*; Dab = NCC[C@H](N)C(=O)O
Report as a plain number; the unit mg/L is understood.

Query string: Looking for the measured MIC P. aeruginosa ATTC 27853 of CCCCCCCC(=O)N[C@@H](CCC(=O)O)C(=O)N[C@H](CCN)C(=O)N[C@H]1CCNC(=O)[C@H]([C@@H](C)O)NC(=O)[C@H](CCN)NC(=O)[C@H](CCN)NC(=O)[C@H](CC(C)C)NC(=O)[C@@H](Cc2ccccc2)NC(=O)[C@H](CCN)NC1=O [Compound 32] (Octanoyl-E[dDab][Dab][Dab][dF]L[Dab][Dab]T; lactam 3-C) , can you help?
Result string: 4

Query string: What do we get for CCCCCCCC(=O)N[C@@H](Cc1ccc(O)cc1)C(=O)N[C@H](CCN)C(=O)N[C@H]1CCNC(=O)[C@H]([C@@H](C)O)NC(=O)[C@H](CCN)NC(=O)[C@H](CCN)NC(=O)[C@H](CC(C)C)NC(=O)[C@@H](Cc2ccccc2)NC(=O)[C@H](CCN)NC1=O [Compound 29] (Octanoyl-Y[dDab][Dab][Dab][dF]L[Dab][Dab]T; lactam 3-C) ?
Result string: 4

Query string: What do we get for CCCCCCc1ccc(C(=O)N[C@H](C(=O)N[C@@H](CCN)C(=O)N[C@H]2CCNC(=O)[C@H]([C@@H](C)O)NC(=O)[C@H](CCN)NC(=O)[C@H](CCN)NC(=O)[C@H](CC(C)C)NC(=O)[C@@H](Cc3ccccc3)NC(=O)[C@H](CCN)NC2=O)[C@@H](C)O)cc1 [Compound 12] ({Benzoyl(4-hexyl)}-T[Dab][Dab][Dab][dF]L[Dab][Dab]T; lactam 3-C) ?
Result string: 1

----------
- Test system: K. pneumoniae ATCC 700603
- PROTOCOL_SUMMARY: microbe, parasite or virus in culture
- MEASUREMENT_SETUP: ATCC 700603, 18 h
Where a SMILES comes first, the peptide text is derived from it. Bridges are numbered along the chain shown (N, C = ends). [ ]: non-standard residue; d: D form. The star is where a group is joined. Octanoyl = CCCCCCCC(=O)*; Dab = NCC[C@H](N)C(=O)O
Listed below: MIC K. pneumoniae ATCC 700603 values for each entry.
Report as a plain number; the unit µg/mL is understood.

| MOLECULE | MIC K. pneumoniae ATCC 700603 [µg/mL] |
| --- | --- |
| CCCCCCCC(=O)N[C@H](C(=O)N[C@H](Cc1c[nH]cn1)C(=O)N[C@H]1CCNC(=O)[C@H]([C@@H](C)O)NC(=O)[C@H](CCN)NC(=O)[C@H](CCN)NC(=O)[C@H](CC(C)C)NC(=O)[C@@H](Cc2ccccc2)NC(=O)[C@H](CCN)NC1=O)[C@@H](C)O [Compound 48] (Octanoyl-T[dH][Dab][Dab][dF]L[Dab][Dab]T; lactam 3-C) | 4 |

Query string: Looking for the measured MIC K. pneumoniae ATCC 700603 of CCCCCCCC(=O)N[C@H](C(=O)N[C@@H](Cc1c[nH]c2ccccc12)C(=O)N[C@H]1CCNC(=O)[C@H]([C@@H](C)O)NC(=O)[C@H](CCN)NC(=O)[C@H](CCN)NC(=O)[C@H](CC(C)C)NC(=O)[C@@H](Cc2ccccc2)NC(=O)[C@H](CCN)NC1=O)[C@@H](C)O [Compound 46] (Octanoyl-TW[Dab][Dab][dF]L[Dab][Dab]T; lactam 3-C) , can you help?
Result string: 32

----------
- System: K. pneumoniae ATCC 13833
- PROTOCOL_SUMMARY: microbe, parasite or virus in culture
- MEASUREMENT_SETUP: ATCC 13833, 18 h
Where a SMILES comes first, the peptide text is derived from it. Bridges are numbered along the chain shown (N, C = ends). [ ]: non-standard residue; d: D form. The star is where a group is joined. Benzoyl(3-Ph) = O=C(c1cccc(-c2ccccc2)c1)*; Hexanoyl(6-Ph) = O=C(CCCCCc1ccccc1)*; dDab = NCC[C@@H](N)C(=O)O; Octanoyl = CCCCCCCC(=O)*; Dab = NCC[C@H](N)C(=O)O
Listed below: MIC K. pneumoniae ATCC 13833 values for each entry.

Answered examples (2):
| COMPOUND | MIC K. pneumoniae ATCC 13833 |
| --- | --- |
| CCCCCCCC(=O)N[C@H](C(=O)N[C@@H](CCCCN)C(=O)N[C@H]1CCNC(=O)[C@H]([C@@H](C)O)NC(=O)[C@H](CCN)NC(=O)[C@H](CCN)NC(=O)[C@H](CC(C)C)NC(=O)[C@@H](Cc2ccccc2)NC(=O)[C@H](CCN)NC1=O)[C@@H](C)O [Compound 42] (Octanoyl-TK[Dab][Dab][dF]L[Dab][Dab]T; lactam 3-C) | 16 µg/mL |
| CC(C)C[C@@H]1NC(=O)[C@@H](Cc2ccccc2)NC(=O)[C@H](CCN)NC(=O)[C@@H](NC(=O)[C@H](CCN)NC(=O)[C@@H](NC(=O)c2cccc(-c3ccccc3)c2)[C@@H](C)O)CCNC(=O)[C@H]([C@@H](C)O)NC(=O)[C@H](CCN)NC(=O)[C@H](CCN)NC1=O [Compound 14] ({Benzoyl(3-Ph)}-T[Dab][Dab][Dab][dF]L[Dab][Dab]T; lactam 3-C) | >32 µg/mL |

Read the next record carefully.
Query string: Looking for the measured MIC K. pneumoniae ATCC 13833 of CC(C)C[C@@H]1NC(=O)[C@@H](Cc2ccccc2)NC(=O)[C@H](CCN)NC(=O)[C@@H](NC(=O)[C@@H](CCN)NC(=O)[C@@H](NC(=O)CCCCCc2ccccc2)[C@@H](C)O)CCNC(=O)[C@H]([C@@H](C)O)NC(=O)[C@H](CCN)NC(=O)[C@H](CCN)NC1=O [Compound 25] ({Hexanoyl(6-Ph)}-T[dDab][Dab][Dab][dF]L[Dab][Dab]T; lactam 3-C) , can you help?
Result string: 4 µg/mL

----------
- PROTOCOL_SUMMARY: in vitro
- MEASUREMENT_SETUP: human
- Description: All compounds synthesised in this study were assessed for their minimum inhibitory concentrations (MIC, mg/L) by broth microdilution assay against five antibiotic-sensitive and resistant ATCC reference strains covering the Gram-negative ESKAPE pathogens (Escherichia coli, Klebsiella pneumoniae, A. baumannii, and P. aeruginosa) (Table 1, Table 2 and Table 3). Staphylococcus aureus was also included as a representative Gram-positive bacterial strain. […]
Where a SMILES comes first, the peptide text is derived from it. Bridges are numbered along the chain shown (N, C = ends). [ ]: non-standard residue; d: D form. The star is where a group is joined. Benzoyl(3-Ph) = O=C(c1cccc(-c2ccccc2)c1)*; Decanoyl(3R-OH) = CCCCCCC[C@@H](O)CC(=O)*; dDab = NCC[C@@H](N)C(=O)O; hSer = N[C@@H](CCO)C(=O)O; Octanoyl = CCCCCCCC(=O)*; Dab = NCC[C@H](N)C(=O)O
READOUT_NAME: CC50 at 24 h

| COMPOUND | CC50 at 24 h |
| --- | --- |
| CC(C)C[C@@H]1NC(=O)[C@@H](Cc2ccccc2)NC(=O)[C@H](CCN)NC(=O)[C@@H](NC(=O)[C@@H](CCN)NC(=O)[C@@H](NC(=O)c2cccc(-c3ccccc3)c2)[C@@H](C)O)CCNC(=O)[C@H]([C@@H](C)O)NC(=O)[C@H](CCN)NC(=O)[C@H](CCN)NC1=O [Compound 27] ({Benzoyl(3-Ph)}-T[dDab][Dab][Dab][dF]L[Dab][Dab]T; lactam 3-C) | > 300 µM |
| CCCCCCC[C@@H](O)CC(=O)N[C@H](C(=O)NCC(=O)N[C@H]1CCNC(=O)[C@H]([C@@H](C)O)NC(=O)[C@H](CCN)NC(=O)[C@H](CCN)NC(=O)[C@H](CC(C)C)NC(=O)[C@@H](Cc2ccccc2)NC(=O)[C@H](CCN)NC1=O)[C@@H](C)O [Compound 52] ({Decanoyl(3R-OH)}-TG[Dab][Dab][dF]L[Dab][Dab]T; lactam 3-C) | > 300 µM |
| CC(C)C[C@@H]1NC(=O)[C@@H](Cc2ccccc2)NC(=O)[C@H](CCN)NC(=O)[C@@H](NC(=O)[C@H](CCN)NC(=O)[C@@H](N)[C@@H](C)O)CCNC(=O)[C@H]([C@@H](C)O)NC(=O)[C@H](CCN)NC(=O)[C@H](CCN)NC1=O [PMBN, polymyxin B nonapeptide, reference compound] (H-T[Dab][Dab][Dab][dF]L[Dab][Dab]T; lactam 3-C (inferred)) | > 300 µM |
| CCCCCCCC(=O)N[C@H](C(=O)N[C@@H](CCO)C(=O)N[C@H]1CCNC(=O)[C@H]([C@@H](C)O)NC(=O)[C@H](CCN)NC(=O)[C@H](CCN)NC(=O)[C@H](CC(C)C)NC(=O)[C@@H](Cc2ccccc2)NC(=O)[C@H](CCN)NC1=O)[C@@H](C)O [Compound 37] (Octanoyl-T[hSer][Dab][Dab][dF]L[Dab][Dab]T; lactam 3-C) | 271 µM |

Read the next record carefully.
Query string: Looking for the measured CC50 at 24 h of CCCCCCCC(=O)N[C@H](C(=O)N[C@@H](CCCCN)C(=O)N[C@H]1CCNC(=O)[C@H]([C@@H](C)O)NC(=O)[C@H](CCN)NC(=O)[C@H](CCN)NC(=O)[C@H](CC(C)C)NC(=O)[C@@H](Cc2ccccc2)NC(=O)[C@H](CCN)NC1=O)[C@@H](C)O [Compound 42] (Octanoyl-TK[Dab][Dab][dF]L[Dab][Dab]T; lactam 3-C) , can you help?
Result string: > 300 µM
